System: NCI-H322M
Assay: Growth inhibition of human NCI-H322M cells incubated for 48 hrs by sulforhodamine B assay
Format: functional
endpointName: GI50 (µM)
Give the quantity in µM, number only.

For the record COc1cc(C(=O)/C=C/c2cccc(Nc3ccnc4cc(Cl)ccc34)c2)cc(OC)c1OC , what value of GI50 is listed for NCI-H322M?
1.52

For the record COc1ccc(C(=O)/C=C/c2cccc(Nc3ccnc4cc(Cl)ccc34)c2)cc1 , what value of GI50 is listed for NCI-H322M?
2.69

For the record COc1ccc(C2=NN(C=O)C(c3cccc(Nc4ccnc5cc(Cl)ccc45)c3)C2)cc1 (stereo not given) , what value of GI50 is listed for NCI-H322M?
6.51

For the record O=CN1N=C(c2ccc(Cl)cc2)CC1c1cccc(Nc2ccnc3cc(Cl)ccc23)c1 (stereo not given) , what value of GI50 is listed for NCI-H322M?
5.52

For the record COc1cccc2c1C(=O)c1c(O)c3c(c(O)c1C2=O)C[C@@](O)(C(=O)CO)C[C@@H]3O[C@H]1C[C@H](N)[C@H](O)[C@H](C)O1 [DOXORUBICIN] , what value of GI50 is listed for NCI-H322M?
0.54
